Measured normalised viability, listed per entry.
system: MDA-MB-231; experiment: normalised viability (% of control), CellTiter-Blue; higher = more viable cells (100 = DMSO, 0 = benzethonium chloride kill control); conditions: incubation time: 72 h
OBSERVABLE: normalised viability

MOLECULE	OBSERVABLE	RESULT
COc1cc2c(Oc3ccc(NC(=O)C4(C(=O)Nc5ccc(F)cc5)CC4)cc3F)ccnc2cc1OCCCN1CCOCC1 [Foretinib] (0.1 nM)	normalised viability	102%
CO[C@H]1C[C@@H]2CC[C@@H](C)[C@@](O)(O2)C(=O)C(=O)N2CCCC[C@H]2C(=O)O[C@H]([C@H](C)C[C@@H]2CC[C@@H](O)[C@H](OC)C2)CC(=O)[C@H](C)/C=C(\C)[C@@H](O)[C@@H](OC)C(=O)[C@H](C)C[C@H](C)/C=C/C=C/C=C/1C [Sirolimus] (0.1 nM)	normalised viability	85.2%
Cn1nnc2c(C(N)=O)ncn2c1=O [Temozolomide] (1 nM)	normalised viability	93%
CCN(CC)CCOc1ccc(C(=C(Cl)c2ccccc2)c2ccccc2)cc1 [Clomifene] (1 nM)	normalised viability	104%
O=NN(CCCl)C(=O)NC1CCCCC1 [Lomustine] (1 nM)	normalised viability	97.3%

* * *

Measured normalised response, listed per entry.
test system: SK-BR-3; assay: normalised response (% of control), CellTiter-Glo; higher = more viable cells (100 = DMSO, 0 = benzethonium chloride kill control); settings: incubation time: 72 h

MOLECULE	normalised response (%)
CN1CCN(c2nc(C3=C(c4c[nH]c5ccccc45)C(=O)NC3=O)c3ccccc3n2)CC1 [Sotrastaurin] (1000 nM)	90.9
CC[C@@H]1C(=O)N(C)c2cnc(Nc3ccc(C(=O)N[C@H]4CC[C@H](N5CCN(CC6CC6)CC5)CC4)cc3OC)nc2N1C(C)C [Volasertib] (1 nM)	98.5
CC/C(=C(\c1ccccc1)c1ccc(OCCN(C)C)cc1)c1ccccc1 [Tamoxifen] (10 nM)	100
N[C@@H](Cc1ccc(N(CCCl)CCCl)cc1)C(=O)O [Melphalan] (12.5 nM)	95
Cc1c(N)nc([C@H](CC(N)=O)NC[C@H](N)C(N)=O)nc1C(=O)N[C@H](C(=O)N[C@H](C)[C@@H](O)[C@H](C)C(=O)N[C@H](C(=O)NCCc1nc(-c2nc(C(=O)NCCC[S+](C)C)cs2)cs1)[C@@H](C)O)[C@@H](OC1OC(CO)C(O)C(O)C1OC1OC(CO)C(O)C(OC(N)=O)C1O)c1cnc[nH]1 (stereo not given in full) [Bleomycin] (1 nM)	103
Cc1c(N)nc([C@H](CC(N)=O)NC[C@H](N)C(N)=O)nc1C(=O)N[C@H](C(=O)N[C@H](C)[C@@H](O)[C@H](C)C(=O)N[C@H](C(=O)NCCc1nc(-c2nc(C(=O)NCCC[S+](C)C)cs2)cs1)[C@@H](C)O)[C@@H](OC1OC(CO)C(O)C(O)C1OC1OC(CO)C(O)C(OC(N)=O)C1O)c1cnc[nH]1 (stereo not given in full) [Bleomycin] (10 nM)	106
CC[C@@H]1C(=O)N(C)c2cnc(Nc3ccc(C(=O)N[C@H]4CC[C@H](N5CCN(CC6CC6)CC5)CC4)cc3OC)nc2N1C(C)C [Volasertib] (100 nM)	16.1
CCN(CC)CCOc1ccc(C(=C(Cl)c2ccccc2)c2ccccc2)cc1 [Clomifene] (1 nM)	108
CC(C)(C)Cn1c(N)nc2ccc(-c3[nH]c(C(C)(C)C)nc3-c3ccc(F)cc3)nc21 (1000 nM)	97.7
CCc1cnn2c(NCc3ccc[n+]([O-])c3)cc(N3CCCC[C@H]3CCO)nc12 [Dinaciclib] (0.1 nM)	103
CC(C)n1nc(-c2ccc3oc(N)nc3c2)c2c(N)ncnc21 [INK128] (1 nM)	85.9
CCCc1cc(C)[nH]c(=O)c1CNC(=O)c1cc(-c2ccnc(N3CCN(C)CC3)c2)cc2c1cnn2C(C)C [GSK343] (1 nM)	91.9
CO[C@H](C(=O)[C@@H](O)[C@@H](C)O)[C@@H]1Cc2cc3cc(O[C@H]4C[C@@H](O[C@@H]5C[C@@H](O)[C@H](O)[C@@H](C)O5)[C@H](O)[C@@H](C)O4)c(C)c(O)c3c(O)c2C(=O)[C@H]1O[C@H]1C[C@@H](O[C@@H]2C[C@@H](O)[C@@H](O[C@@H]3C[C@](C)(O)[C@H](O)[C@@H](C)O3)[C@@H](C)O2)[C@H](O)[C@@H](C)O1 [Plicamycin] (10 nM)	111
C[C@]12C=CC(=O)C=C1CC[C@@H]1[C@@H]2C(=O)C[C@@]2(C)[C@H]1CC[C@]2(O)C(=O)CO [Prednisone] (10 nM)	123
CC(C)NC[C@@H](C(=O)N1CCN(c2ncnc3c2[C@H](C)C[C@H]3O)CC1)c1ccc(Cl)cc1 [GDC-0068] (1 nM)	103
CC(C)C[C@H](NC(=O)[C@H](CCc1ccccc1)NC(=O)CN1CCOCC1)C(=O)N[C@@H](Cc1ccccc1)C(=O)N[C@@H](CC(C)C)C(=O)[C@@]1(C)CO1 [Carfilzomib] (0.1 nM)	105
CN1CCN(c2nc(C3=C(c4c[nH]c5ccccc45)C(=O)NC3=O)c3ccccc3n2)CC1 [Sotrastaurin] (10 nM)	124
NC(=O)c1cccc2cn(-c3ccc([C@@H]4CCCNC4)cc3)nc12 [MK-4827] (1000 nM)	98.8
COc1cc2c(Oc3ccc(NC(=O)C4(C(=O)Nc5ccc(F)cc5)CC4)cc3F)ccnc2cc1OCCCN1CCOCC1 [Foretinib] (1 nM)	97.6
NC(=O)NO [Hydroxyurea] (10 nM)	113
CCCCCOC(=O)Nc1nc(=O)n([C@@H]2O[C@H](C)[C@@H](O)[C@H]2O)cc1F [Capecitabine] (1 nM)	110
CC(C)C(=O)Nc1ccc([N+](=O)[O-])c(C(F)(F)F)c1 [Flutamide] (1 nM)	105
NC1(c2ccc(-c3nc4ccn5c(=O)[nH]nc5c4cc3-c3ccccc3)cc2)CCC1 [MK-2206] (100 nM)	83.5
Cn1cc(C[C@@H](N)C(=O)O)c2ccccc21 [1-methyl-D-tryptophan] (5 nM)	99.8
NC1(c2ccc(-c3nc4ccn5c(=O)[nH]nc5c4cc3-c3ccccc3)cc2)CCC1 [MK-2206] (1 nM)	112
